Data credit: paper PMC9224751

Tested on: SARS-CoV-2 Gamma
Experiment: VoC replication in Calu-3 cells, qRT-PCR
Assay type: cell-based
Conditions: Severe acute respiratory syndrome coronavirus 2
Below: a set of entries, each annotated with reported IC50.

>  <MOLECULE>
Cn1c(=O)c(Oc2ccc(F)cc2F)cc2cnc(NC(CCO)CCO)nc21 [PAM, Pamapimod]

>  <SYSTEM_UNDER_TEST>
SARS-CoV-2 Gamma

>  <IC50>
~250 nM

$$$$
>  <MOLECULE>
CCc1ccc(CCOc2ccc(CC3SC(=O)NC3=O)cc2)nc1 (centres unmarked) [Pio, Pioglitazone]

>  <SYSTEM_UNDER_TEST>
SARS-CoV-2 Gamma

>  <IC50>
~700 nM

$$$$

---

Test system: SARS-CoV-2 Delta
Assay: VoC replication in Calu-3 cells, qRT-PCR
Assay type: cell-based
Conditions: Severe acute respiratory syndrome coronavirus 2, […]
Below: a set of entries, each annotated with reported IC50.

>  <COMPOUND>
CCc1ccc(CCOc2ccc(CC3SC(=O)NC3=O)cc2)nc1 (centres unmarked)

>  <IC50>
~500 nM

$$$$
>  <COMPOUND>
Cn1c(=O)c(Oc2ccc(F)cc2F)cc2cnc(NC(CCO)CCO)nc21

>  <IC50>
~250 nM

$$$$
